Test system: Cerebrospinal fluid
PROTOCOL DESCRIPTION: Drug uptake in cerebro spinal fluid of PCP stimulated Sprague-Dawley rat hyperlocomotion model at 100 mg/kg, po
Type: ADME, organism-based
CONDITION DETAILS: in vivo, read-out: Drug uptake
PROPERTY LABEL: concentration (nM)
Numeric only. Scale: nM

Qu. Under Cerebrospinal fluid: concentration value of `Cc1ccc(C(C)(C)O)cc1-c1ccc2c(n1)n(C)c(=O)n2CC(C)(C)C` ?
Ans. 906

* * *

Test system: Cerebrospinal fluid
PROTOCOL DESCRIPTION: Drug uptake in cerebro spinal fluid of MK801 stimulated Sprague-Dawley rat hyperlocomotion model at 100 mg/kg, po
Assay type: ADME, organism-based
CONDITION DETAILS: in vivo, read-out: Drug uptake
PROPERTY LABEL: concentration (nM)
Numeric only. Scale: nM

Qu. What value of measured concentration is listed for `Cc1ccc(C(C)(C)O)cc1-c1ccc2c(n1)n(C)c(=O)n2CC(C)(C)C` ?
Ans. 711

* * *

PROTOCOL DESCRIPTION: Half life in iv dosed Wistar Hannover rat administered as single dose measured up to 24 hrs
Assay type: ADME, organism-based
CONDITION DETAILS: in vivo
PROPERTY LABEL: half-life (min)
Numeric only. Scale: min

Qu. What value of measured half-life is listed for `Cc1ccc(C(C)(C)O)cc1-c1ccc2c(n1)n(C)c(=O)n2CC(C)(C)C` ?
Ans. 58.8

* * *

PROTOCOL DESCRIPTION: Total plasma concentration in MK801 stimulated Sprague-Dawley rat hyperlocomotion model at 10 mg/kg, po after 2 hrs
Format: ADME, organism-based
PROPERTY LABEL: concentration at 2 h (nM)
Numeric only. Scale: nM

Qu. What value of measured concentration at 2 h is listed for `Cc1ccc(C(C)(C)O)cc1-c1ccc2c(n1)n(C)c(=O)n2CC(C)(C)C` ?
Ans. 1400

* * *

Below, each entry is listed alongside its reported solubility.
PROTOCOL DESCRIPTION: physchem
CONDITION DETAILS: buffer, pH 7
Numeric only. Scale: µM

Cn1c(=O)n(CC(C)(C)C)c2ccc(-c3ccc(S(C)(=O)=O)cc3)nc21    7

Kindly review the next compound as well.
Qu. What value of measured solubility is listed for `Cc1ccc(C(C)(C)O)cc1-c1ccc2c(n1)n(C)c(=O)n2CC(C)(C)C` ?
Ans. 147

* * *

PROTOCOL DESCRIPTION: Total plasma concentration in PCP stimulated Sprague-Dawley rat hyperlocomotion model at 30 mg/kg, po after 2 hrs
Assay type: ADME, organism-based
PROPERTY LABEL: concentration at 2 h (µM)
Numeric only. Scale: µM

Qu. What value of measured concentration at 2 h is listed for `Cc1ccc(C(C)(C)O)cc1-c1ccc2c(n1)n(C)c(=O)n2CC(C)(C)C` ?
Ans. 8.5

* * *

Tested on: Cerebrospinal fluid
PROTOCOL DESCRIPTION: Drug uptake in cerebro spinal fluid of MK801 stimulated Sprague-Dawley rat hyperlocomotion model at 30 mg/kg, po
Type: ADME, organism-based
CONDITION DETAILS: in vivo, read-out: Drug uptake
PROPERTY LABEL: concentration
Entry format: amount then unit.

Qu. What value of measured concentration is listed for `Cc1ccc(C(C)(C)O)cc1-c1ccc2c(n1)n(C)c(=O)n2CC(C)(C)C` ?
Ans. 211 nM

* * *

PROTOCOL DESCRIPTION: Oral bioavailability in Wistar Hannover rat at 10 mg/kg administered as single dose measured up to 24 hrs
Format: ADME, organism-based
CONDITION DETAILS: in vivo
PROPERTY LABEL: bioavailability (%)
Numeric only. Scale: %

Qu. What value of measured bioavailability is listed for `Cc1ccc(C(C)(C)O)cc1-c1ccc2c(n1)n(C)c(=O)n2CC(C)(C)C` ?
Ans. 47
